Taken from ChEMBL document CHEMBL4613276.

# Tested On: UniProtKB P00918
# Method: Inhibition of recombinant human carbonic anhydrase 2 preincubated with enzyme for 10 mins by phenol red dye based stopped flow CO2 hydration assay
Below is a list of entries, each paired with its recorded Ki value.
Numbers only; they are read as nM.

These recorded examples may help you get a feel for the data.
Compound	Endpoint Result
NS(=O)(=O)c1ccc(-c2ccc(Cc3ccccc3C(=O)O)cc2)cc1	0.69
Nc1ccccc1C(O)c1ccc(-c2ccc(S(N)(=O)=O)cc2)cc1 (stereo unspecified)	0.97
NS(=O)(=O)c1ccc(-c2ccc(C3OC(=O)c4ccccc43)cc2)cc1 (stereo unspecified)	0.7
Nc1ccccc1C(=O)c1ccc(-c2ccc(S(N)(=O)=O)cc2)cc1	31
Nc1cccc(C(O)c2ccc(-c3ccc(S(N)(=O)=O)cc3)cc2)c1 (stereo unspecified)	0.78
Nc1cccc(Cc2ccc(-c3ccc(S(N)(=O)=O)cc3)cc2)c1	0.92
NS(=O)(=O)c1ccc(-c2ccc(C(=O)c3ccccc3C(=O)O)cc2)cc1	0.83
Nc1cccc(C(=O)c2ccc(-c3ccc(S(N)(=O)=O)cc3)cc2)c1	9.8
NS(=O)(=O)c1ccc(-c2ccc(C(O)c3cccc(C(=O)O)c3)cc2)cc1 (stereo unspecified)	0.83
NS(=O)(=O)c1ccc(-c2ccc(Cc3cccc(C(=O)O)c3)cc2)cc1	0.57

Find the measured Ki of NS(=O)(=O)c1ccc(-c2ccc(C(=O)c3cccc(C(=O)O)c3)cc2)cc1 and report it.
0.94
